experiment: solvent given as SMILES; details: in COC(C)=O
MEASURE_NAME: solvation free energy, 298 K (kcal/mol)
Just the number in kcal/mol, nothing appended.

Req: Return reported solvation free energy, 298 K; argument: CC(C)CC(C)C
Resp: -3.51

Req: Next entry: CN(C)C(=O)Nc1ccc(Cl)c(Cl)c1
Resp: -14.6

Req: Now this one: CCCC(C)C
Resp: -3.14

Req: Quick one: C=CCC
Resp: -2.21

Req: // next record O=O
Resp: 0.77

Req: Param item: C#CC
Resp: -2.51

Req: Next compound: CN(C)C(=O)Nc1ccc(Cl)cc1
Resp: -13.1

Req: Then what about the compound O=S=O ?
Resp: -3.08

Req: And the next one, ClCCl ?
Resp: -4.03

Req: Also check O=C(O)c1ccc([N+](=O)[O-])cc1
Resp: -12.4

Req: And what about the compound [N-]=[N+]=O ?
Resp: -1.09

Req: // same read-out, input: C=CCCC
Resp: -2.88

Req: Would you mind doing CC(=O)Oc1ccccc1C(=O)O as well?
Resp: -13.6

Req: Try this compound next: CCCO
Resp: -4.88

Req: Try the compound CCC(C)(C)C(=O)OC1CC(C)C=C2C=CC(C)C(CCC3CC(O)CC(=O)O3)C21 (stereo not given)
Resp: -25.1

Req: Also check O=C1c2ccccc2C(=O)c2c(Cl)cccc21
Resp: -14.3

Req: Note, next up: C=C
Resp: -0.75

Req: And COC ?
Resp: -2.33

Req: Follow-up entry: O=[N+]([O-])c1cc(Cl)ccc1Cl
Resp: -9.35

Req: Try the compound c1ccccc1
Resp: -4.38

Req: Again, but for C=C(C)C1CCC2(CO)CCC3(C)C(CCC4C5(C)CCC(O)C(C)(C)C5CCC43C)C12 (stereo not given)
Resp: -27.4

Req: Entry to check: C1CCCCC1
Resp: -3.61

Req: Now try CC[N+](=O)[O-] .
Resp: -5.46

Req: And for COCCO ?
Resp: -5.46

Req: Now consider c1cc2c3c(cccc3c1)CC2 and answer again.
Resp: -9.32

Req: Another compound to look at: O=c1c2ccccc2sc2ccccc12
Resp: -12.6

Req: Continue with Cc1ccccc1C(=O)O
Resp: -8.92

Req: Note, next up: O=C=O
Resp: -1.13

Req: Query CC(=O)Nc1ccc(O)cc1 next
Resp: -14.8

Req: Now the compound O=C(C(=O)c1ccccc1)c1ccccc1
Resp: -12.4

====

assay: solvent given as SMILES; conditions: in CC(C)OCCO
What solvation free energy, 298 K was measured for each of the following?
Report the value in kcal/mol with no unit label.

Req: Form field: reported solvation free energy, 298 K of CC(=O)Nc1ccc(O)cc1
Resp: -16.1

Req: What would you report for O=C(C(=O)c1ccccc1)c1ccccc1 ?
Resp: -11.8

Req: Another compound to look at: O=C(O)c1ccc([N+](=O)[O-])cc1
Resp: -12.6

Req: Field entry: O=c1c2ccccc2sc2ccccc12
Resp: -12.3

====

Hi there, I'd appreciate the recorded solvation free energy, 298 K for every entry that follows.
experiment: solvent given as SMILES; settings: in CCCCOC(C)=O
Record the value in kcal/mol, omitting the unit from your answer.

Req: Form field: reported solvation free energy, 298 K of c1cc2c3c(cccc3c1)CC2
Resp: -9.43

Req: What about CCCC(C)C ?
Resp: -3.4

Req: // same read-out, input: CC(=O)Nc1ccc(O)cc1
Resp: -14.2

Req: Could you do the same for Cc1ccccc1 , please?
Resp: -5.5

Req: Another compound: CCC(C)(C)C(=O)OC1CC(C)C=C2C=CC(C)C(CCC3CC(O)CC(=O)O3)C21 (configuration not stated)
Resp: -25

Req: Param item: C1CCCCC1
Resp: -3.91

Req: // same read-out, input: Cc1ccc(C)cc1
Resp: -6.1

Req: Queued: C=CCCCCC
Resp: -4.28

Req: Moving on to the next compound: Oc1ccc(O)cc1
Resp: -12.2

Req: Also check O=C(O)c1ccc([N+](=O)[O-])cc1
Resp: -11.9

Req: // query: O=C(C(=O)c1ccccc1)c1ccccc1
Resp: -12.2

Req: Try [N-]=[N+]=O next.
Resp: -0.98

Req: Now this one: CN(C)C(=O)Nc1ccc(Cl)cc1
Resp: -12.8

Req: Input c1ccc2c(c1)-c1cccc3cccc-2c13
Resp: -12.7

Req: Do the same for CC(=O)Oc1ccccc1C(=O)O please
Resp: -13.1

Req: Another compound to check: CC(C)CO
Resp: -4.84

Req: Similarly, C=CCCCC=C ?
Resp: -4.42
